# pIC50 per entry
- Test system: DU-145 (prostate carcinoma)
- Recorded Conditions: read-out: Cytotoxicity IC50, DU-145; 72 h of compound treatment, Cell Titer-Glo (ATP levels); error is standard deviation of the mean, n ≥ 2
pIC50: −log10 of the molar value.
Measured Metric: pIC50

[[record]]
molecule = "COc1ccc([C@]23C[C@@]45SS[C@@](C)(C(=O)N4[C@H]2N(S(=O)(=O)c2ccccc2)c2ccccc23)N(C)C5=O)cc1 [(+)-42, Epidithiodiketopiperazine]"
tested_on = "DU-145 (prostate carcinoma)"
result_number = 7.44

[[record]]
molecule = "COc1ccc([C@]23C[C@]4(SSC[C@H](NC(=O)CC[C@H](N)C(=O)O)C(=O)NCC(=O)O)C(=O)N(C)[C@@](C)(SSC[C@H](NC(=O)CC[C@H](N)C(=O)O)C(=O)NCC(=O)O)C(=O)N4[C@H]2N(S(=O)(=O)c2ccccc2)c2ccccc23)cc1 [Compound 46, Bis(L-glutathione)disulfide]"
tested_on = "DU-145 (prostate carcinoma)"
result_number = 6.24


###

Reported pIC50 is given for each of the following compounds.
- Tested on: HeLa (cervical carcinoma)
- Recorded Conditions: read-out: Cytotoxicity IC50, HeLa; 72 h of compound treatment, Cell Titer-Glo (ATP levels); error is standard deviation of the mean, n ≥ 2
pIC50: −log10 of the molar value.
Measured Metric: pIC50

[[record]]
compound = "COc1ccc([C@]23C[C@]4(SSC[C@H](NC(=O)CC[C@H](N)C(=O)O)C(=O)NCC(=O)O)C(=O)N(C)[C@@](C)(SSC[C@H](NC(=O)CC[C@H](N)C(=O)O)C(=O)NCC(=O)O)C(=O)N4[C@H]2N(S(=O)(=O)c2ccccc2)c2ccccc23)cc1 [Compound 46, Bis(L-glutathione)disulfide]"
result_number = 6.29

[[record]]
compound = "COc1ccc([C@]23C[C@@]45SS[C@@](C)(C(=O)N4[C@H]2N(S(=O)(=O)c2ccccc2)c2ccccc23)N(C)C5=O)cc1 [(+)-42, Epidithiodiketopiperazine]"
result_number = 7.49

